# Test Target: OsSMF1 (Oryza sativa, UniProt Q6ZLB0 1-436)
# Sequence: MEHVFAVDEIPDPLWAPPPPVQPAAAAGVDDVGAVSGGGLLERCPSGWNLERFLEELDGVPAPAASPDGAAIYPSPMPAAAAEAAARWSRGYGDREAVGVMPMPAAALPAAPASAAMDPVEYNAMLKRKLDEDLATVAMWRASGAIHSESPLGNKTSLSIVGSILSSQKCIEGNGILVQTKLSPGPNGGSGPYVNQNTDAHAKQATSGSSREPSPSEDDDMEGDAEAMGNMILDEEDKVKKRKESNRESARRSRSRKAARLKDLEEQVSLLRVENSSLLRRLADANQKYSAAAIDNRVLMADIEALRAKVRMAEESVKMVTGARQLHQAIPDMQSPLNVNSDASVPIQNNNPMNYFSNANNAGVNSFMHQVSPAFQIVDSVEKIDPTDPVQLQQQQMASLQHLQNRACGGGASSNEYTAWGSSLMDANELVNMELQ
# Method: protein-binding microarray (RPBM); PBS, 2% BSA, 51.3 ng/ul salmon testes DNA, 50 uM zinc acetate, 200 nM TF, 25 C, 1 h; high values mean tight binding
# Settings: protein: recombinant; tags: N-terminal polyhistidine and DsRed monomer fusion (pET32a); chain copies: 2; label: CyDye5-dUTP incorporated in the synthesized complementary strand; 3' TTTTT single-stranded linker to array surface; dsDNA, one strand shown
The full ranking holds about 39,000 sequences; the median of “fluorescence intensity (a.u.)” is about 4,300, and the highest 2% start at about 39,000. The entries come from a sample that favours the highest values as a whole.
Property Name: binding signal

Query block: Find the recorded binding signal belonging to CGAATTTGCTACCCCATTTCACAAATCAAAAGTGCAAAGCCGGAGTCACCTAGTGCAG and report it.
Result block: 29200 fluorescence intensity (a.u.)

Query block: Subsequent entry: CGGCCGCGACACGCACACGCCCACCCCACGCCCGCCGCGCCGGAGTCACCTAGTGCAG
Result block: 3140 fluorescence intensity (a.u.)

Query block: Subsequent entry: AGAGGGGAGGAAGAAGGAAGGAGAGATGGGTCCGACATGTCGGAGTCACCTAGTGCAG
Result block: 26900 fluorescence intensity (a.u.)

Query block: Subsequent entry: AATTGCTATGGTTACACCCGGCCGAAGCAAAGTCACCACTCGGAGTCACCTAGTGCAG
Result block: 3520 fluorescence intensity (a.u.)

Query block: Subsequent entry: CTCTCCTCCTTTCTTCTCCAAGTCAACAGTTCCTACGCTACGGAGTCACCTAGTGCAG
Result block: 3360 fluorescence intensity (a.u.)

Query block: Subsequent entry: ATTTTATTGCCACATAAGCGCCACGTCAATGCCACGTGGGCGGAGTCACCTAGTGCAG
Result block: 56000 fluorescence intensity (a.u.)

Query block: Subsequent entry: AATAAGTAAGGTGGTTTTAAAATTTGGGGAGAGCTAACAGCGGAGTCACCTAGTGCAG
Result block: 39100 fluorescence intensity (a.u.)

Query block: Subsequent entry: TATAATTGCTACGTAAGCGCCACGTCAATGCCATGTCAGACGGAGTCACCTAGTGCAG
Result block: 15700 fluorescence intensity (a.u.)

Query block: Subsequent entry: TACTTATGTAAAAGGATTGATTTAAGAGAATGGTCCAAACCGGAGTCACCTAGTGCAG
Result block: 44100 fluorescence intensity (a.u.)

Query block: Subsequent entry: AAGAGATGGGGATTAAACCAATTGGGCCGAAAGATATGTCCGGAGTCACCTAGTGCAG
Result block: 41200 fluorescence intensity (a.u.)

Query block: Subsequent entry: CTATGCCTTGTCAACATTCAACCCCTCCAATAGACTTTGTCGGAGTCACCTAGTGCAG
Result block: 3210 fluorescence intensity (a.u.)

Query block: Subsequent entry: ATTAGTATTCCCTCCCATCATTAATATATGACGTTAGTGTCGGAGTCACCTAGTGCAG
Result block: 4550 fluorescence intensity (a.u.)

Query block: Subsequent entry: TAAATCGATCCTACGTCACATGACAGACTGGACCCTTGTCCGGAGTCACCTAGTGCAG
Result block: 10900 fluorescence intensity (a.u.)

Query block: Subsequent entry: GGAGGTGGGGATGGTGGGAGGTTTTGGTTTGGTAAAATAGCGGAGTCACCTAGTGCAG
Result block: 4910 fluorescence intensity (a.u.)

Query block: Subsequent entry: GAGAAGAAGGCCACCTCACCACTAAAGGAGGAGGAGGAGGCGGAGTCACCTAGTGCAG
Result block: 43500 fluorescence intensity (a.u.)

Query block: Subsequent entry: GATCAAATTGCCACGTAAGCGCCACGTCAATGCCATGTCACGGAGTCACCTAGTGCAG
Result block: 48000 fluorescence intensity (a.u.)

Query block: Subsequent entry: TCCGCCGCCTCGGTCGGCTCACGCGTCCATGTCCATCCCGCGGAGTCACCTAGTGCAG
Result block: 3600 fluorescence intensity (a.u.)

Query block: Subsequent entry: AGCAAGCAAAGCCGAAGAATTGTTACACGGCCAAAGTGGACGGAGTCACCTAGTGCAG
Result block: 41200 fluorescence intensity (a.u.)

Query block: Subsequent entry: CATGCTATGTGCTCAAAGGGCAACGGTCGACGTGTGCCTTCGGAGTCACCTAGTGCAG
Result block: 4110 fluorescence intensity (a.u.)

Query block: Subsequent entry: ATCGTGTGACGACGTCTCGTCTCGTCTCCCTCTCCCGACCCGGAGTCACCTAGTGCAG
Result block: 3260 fluorescence intensity (a.u.)

====

# Test Target: OsSMF1 (Oryza sativa, UniProt Q6ZLB0 1-436)
# Sequence: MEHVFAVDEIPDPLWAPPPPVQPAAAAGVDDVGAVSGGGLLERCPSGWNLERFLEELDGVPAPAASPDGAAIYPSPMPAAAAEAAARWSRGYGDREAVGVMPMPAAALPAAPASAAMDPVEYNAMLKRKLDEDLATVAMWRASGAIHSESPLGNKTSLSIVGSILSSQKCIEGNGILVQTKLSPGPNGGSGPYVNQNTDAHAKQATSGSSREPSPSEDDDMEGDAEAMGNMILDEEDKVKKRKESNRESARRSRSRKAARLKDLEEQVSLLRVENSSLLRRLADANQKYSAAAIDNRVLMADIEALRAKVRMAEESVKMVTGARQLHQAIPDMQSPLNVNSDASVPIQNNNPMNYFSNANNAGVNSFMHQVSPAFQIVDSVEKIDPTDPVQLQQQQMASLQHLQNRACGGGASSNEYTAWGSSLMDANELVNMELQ
# Method: protein-binding microarray (RPBM); PBS, 2% BSA, 51.3 ng/ul salmon testes DNA, 50 uM zinc acetate, 200 nM TF, 25 C, 1 h; high values mean tight binding
# Settings: protein: recombinant; tags: N-terminal polyhistidine and DsRed monomer fusion (pET32a); chain copies: 2; label: CyDye5-dUTP incorporated in the synthesized complementary strand; 3' TTTTT single-stranded linker to array surface; dsDNA, one strand shown
In all, about 39,000 sequences were measured (“fluorescence intensity (a.u.)”: median about 4,300, highest 2% from about 39,000 on). The list comes from a sample in which the highest values are over-represented; it also holds close analogues and randomly drawn sequences.
Give binding signal for every item shown.

Query block: Find the recorded binding signal belonging to TTTCACCCGGGACTAAAGATCGCTATCTTTAGTCCCGGATCGGAGTCACCTAGTGCAG and report it.
Result block: 52600 fluorescence intensity (a.u.)

Query block: Subsequent entry: CAACACCCAACCCCAATTGGTCGCGGTGGGTCGGACGGACCGGAGTCACCTAGTGCAG
Result block: 34900 fluorescence intensity (a.u.)

Query block: Subsequent entry: AGGTGGAGGCGCCGGTGTGGGTGGTGGAGCGGGAGGAGGTCGGAGTCACCTAGTGCAG
Result block: 4096 fluorescence intensity (a.u.)

Query block: Subsequent entry: AGCTTTTCTTTTCTACACAAAGGGAAGGGAAAGAAGAAACCGGAGTCACCTAGTGCAG
Result block: 37800 fluorescence intensity (a.u.)

Query block: Subsequent entry: GCATGCTCTTCTGATCTGTAATCTCAGGCTCTATTACTCTCGGAGTCACCTAGTGCAG
Result block: 3450 fluorescence intensity (a.u.)

Query block: Subsequent entry: GCTTGCTGCTGCTGCTGCTGATAGTTTAGCTTGAGAGAGCCGGAGTCACCTAGTGCAG
Result block: 22700 fluorescence intensity (a.u.)

Query block: Subsequent entry: TTTGATGGTGGTTTTGGCTGACGTGGCACCTACATGGCATCGGAGTCACCTAGTGCAG
Result block: 42900 fluorescence intensity (a.u.)

Query block: Subsequent entry: CAATCTGTCATCTCTTTACCAGTCTCATTGACATGTGGGCCGGAGTCACCTAGTGCAG
Result block: 3270 fluorescence intensity (a.u.)

Query block: Subsequent entry: GAATCCATCGACACGTTTCTTTCGTCAGAACAGTGTCCGTCGGAGTCACCTAGTGCAG
Result block: 3420 fluorescence intensity (a.u.)

Query block: Subsequent entry: CGGTGGTTTTGGCTGACGTGGCACCTATGTGGCAAATTTGCGGAGTCACCTAGTGCAG
Result block: 7870 fluorescence intensity (a.u.)

Query block: Subsequent entry: GAAATTTTCAGGGTGTTACATAGATCAACTGAATTCCTTACGGAGTCACCTAGTGCAG
Result block: 3550 fluorescence intensity (a.u.)

Query block: Subsequent entry: AATCCGAGTAGTCATTGTCGTTTCCATGCAGAATTATGGTCGGAGTCACCTAGTGCAG
Result block: 4030 fluorescence intensity (a.u.)

Query block: Subsequent entry: AGTCCAAGAGCGTGACGCATGTTCGGTACCACGCGCACAACGGAGTCACCTAGTGCAG
Result block: 4740 fluorescence intensity (a.u.)

Query block: Subsequent entry: CAATAAACCGGTGGTTGGACCGGTCCAACCAATAAACCAGCGGAGTCACCTAGTGCAG
Result block: 43900 fluorescence intensity (a.u.)

Query block: Subsequent entry: AATGGACCACCGTTAGTCCACCAGTCAGCCAACCAATGGCCGGAGTCACCTAGTGCAG
Result block: 3360 fluorescence intensity (a.u.)

Query block: Subsequent entry: GGCGGTTTTGGATGACGTGGTGCCTACGTGGCTAATTTGACGGAGTCACCTAGTGCAG
Result block: 35600 fluorescence intensity (a.u.)

Query block: Subsequent entry: TTCATATTTATTTGATGACGTGGCTAATCCTGGTCGGATCCGGAGTCACCTAGTGCAG
Result block: 40700 fluorescence intensity (a.u.)

Query block: Subsequent entry: TTAGGACCATAATATCTAATGTTACATGCCACGTACCAAACGGAGTCACCTAGTGCAG
Result block: 7280 fluorescence intensity (a.u.)

Query block: Subsequent entry: GTCCCGCGCATTGGCGACGCGCGACCGGCACGGTCCCGCACGGAGTCACCTAGTGCAG
Result block: 13500 fluorescence intensity (a.u.)

Query block: Subsequent entry: CAGAAGCGTCTACATACAATAGGATTGGGGCCTGCAAATCCGGAGTCACCTAGTGCAG
Result block: 55500 fluorescence intensity (a.u.)

Query block: Subsequent entry: GAGTTTGATAGCTTAGCAGAAATAGTTTTGCTGACGTGGCCGGAGTCACCTAGTGCAG
Result block: 40700 fluorescence intensity (a.u.)

Query block: Subsequent entry: GTATTGAGAATTGTATGACTAATCAATGTTGCCTTACTTACGGAGTCACCTAGTGCAG
Result block: 5200 fluorescence intensity (a.u.)

Query block: Subsequent entry: ATGTTTAGTTCCACGTCAAAATTGGAAGTTTGAAGAAATTCGGAGTCACCTAGTGCAG
Result block: 3980 fluorescence intensity (a.u.)

Reference for the values: paper PMC7819943
